- Target of assay: Estrogen receptor (Homo sapiens)
- Sequence (P03372 whole entry): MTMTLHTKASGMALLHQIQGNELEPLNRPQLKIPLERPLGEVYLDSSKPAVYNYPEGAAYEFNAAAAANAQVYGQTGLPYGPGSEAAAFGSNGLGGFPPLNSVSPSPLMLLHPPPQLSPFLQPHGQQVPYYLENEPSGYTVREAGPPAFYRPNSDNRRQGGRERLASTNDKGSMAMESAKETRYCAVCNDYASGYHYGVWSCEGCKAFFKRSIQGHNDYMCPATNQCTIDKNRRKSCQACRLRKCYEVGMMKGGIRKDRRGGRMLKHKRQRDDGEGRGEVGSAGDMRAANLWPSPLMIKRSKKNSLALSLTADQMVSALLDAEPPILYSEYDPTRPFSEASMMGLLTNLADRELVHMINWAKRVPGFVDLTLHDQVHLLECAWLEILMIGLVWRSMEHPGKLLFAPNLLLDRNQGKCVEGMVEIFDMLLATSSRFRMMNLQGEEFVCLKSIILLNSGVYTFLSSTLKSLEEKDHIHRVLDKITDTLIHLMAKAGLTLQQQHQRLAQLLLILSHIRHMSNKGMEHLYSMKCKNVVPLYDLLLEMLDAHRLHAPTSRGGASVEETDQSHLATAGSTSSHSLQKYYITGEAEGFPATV
Measured property: IC50 (nM)

Observe how each entry below is paired with its result.
{"columns": ["Molecule smiles", "Display unit", "IC50"],
 "data": [
  ["O=C(c1ccc(N2CCN(C(=O)c3ccncc3)CC2)cc1)c1c(-c2ccc(O)cc2)sc2cc(O)ccc12", "nM", 14.5],
  ["O=C(c1ccc(N2CCN(C(=O)c3ccc([N+](=O)[O-])cc3)CC2)cc1)c1c(-c2ccc(O)cc2)sc2cc(O)ccc12", "nM", 2.15],
  ["O=C(c1ccc(N2CCN(C(=O)c3ccccc3[N+](=O)[O-])CC2)cc1)c1c(-c2ccc(O)cc2)sc2cc(O)ccc12", "nM", 3.58],
  ["Cc1cccc(C(=O)N2CCN(c3ccc(C(=O)c4c(-c5ccc(O)cc5)sc5cc(O)ccc45)cc3)CC2)c1", "nM", 0.27],
  ["O=C(c1ccc(N2CCN(Cc3ccccc3)CC2)cc1)c1c(-c2ccc(O)cc2)sc2cc(O)ccc12", "nM", 0.97],
  ["O=C(c1ccc(N2CCN(C3CCCC3)CC2)cc1)c1c(-c2ccc(O)cc2)sc2cc(O)ccc12", "nM", 1.08],
  ["O=C(c1ccc(N2CCN(c3ccc(Cl)cc3)CC2)cc1)c1c(-c2ccc(O)cc2)sc2cc(O)ccc12", "nM", 0.22],
  ["Cc1ccc(C(=O)N2CCN(c3ccc(C(=O)c4c(-c5ccc(O)cc5)sc5cc(O)ccc45)cc3)CC2)cc1", "nM", 2.74],
  ["O=C(c1ccc(N2CCN(C(=O)c3ccc(Cl)cc3)CC2)cc1)c1c(-c2ccc(O)cc2)sc2cc(O)ccc12", "nM", 0.78],
  ["CC(C)N1CCN(c2ccc(C(=O)c3c(-c4ccc(O)cc4)sc4cc(O)ccc34)cc2)CC1", "nM", 0.28]
]}

I. Cc1ccccc1C(=O)N1CCN(c2ccc(C(=O)c3c(-c4ccc(O)cc4)sc4cc(O)ccc34)cc2)CC1
II. O=C(c1ccc(N2CCN(C(=O)c3cccc(Cl)c3)CC2)cc1)c1c(-c2ccc(O)cc2)sc2cc(O)ccc12
// which entry has the larger IC50 value, I or II ? Use the label to indicate which entry you chose.
I

* * *

Entries with their measured IC50, system Estrogen receptor beta (Homo sapiens, UniProt Q92731):
Measured property: IC50 (nM)

Examples with answers:
{"columns": ["Molecule smiles", "IC50 / nM"],
 "data": [
  ["CC(C)N1CCN(c2ccc(C(=O)c3c(-c4ccc(O)cc4)sc4cc(O)ccc34)cc2)CC1", 33.9],
  ["O=C(c1ccc(N2CCN(C(=O)c3ccco3)CC2)cc1)c1c(-c2ccc(O)cc2)sc2cc(O)ccc12", 20.1],
  ["O=C(c1ccc(N2CCN(C(=O)c3ccccc3Cl)CC2)cc1)c1c(-c2ccc(O)cc2)sc2cc(O)ccc12", 3.21],
  ["Cc1cccc(C(=O)N2CCN(c3ccc(C(=O)c4c(-c5ccc(O)cc5)sc5cc(O)ccc45)cc3)CC2)c1", 12.5],
  ["O=C(c1ccc(N2CCN(C3CCCC3)CC2)cc1)c1c(-c2ccc(O)cc2)sc2cc(O)ccc12", 18.1]
]}

P. O=C(c1ccc(N2CCN(C(=O)c3cccc(Cl)c3)CC2)cc1)c1c(-c2ccc(O)cc2)sc2cc(O)ccc12
Q. CCCN1CCN(c2ccc(C(=O)c3c(-c4ccc(O)cc4)sc4cc(O)ccc34)cc2)CC1
R. Cc1ccccc1C(=O)N1CCN(c2ccc(C(=O)c3c(-c4ccc(O)cc4)sc4cc(O)ccc34)cc2)CC1
S. O=C(c1ccc(N2CCN(C(=O)c3ccccc3O)CC2)cc1)c1c(-c2ccc(O)cc2)sc2cc(O)ccc12
Order these by IC50, descending, and give the full ranking. Write the labels in rank order as requested.
Q, R, S, P

* * *

These records show IC50 for Estrogen receptor beta (Homo sapiens, UniProt Q92731).
Measured property: IC50 (nM)

Known results for molecules:
{"columns": ["Molecule smiles", "Display unit", "IC50"],
 "data": [
  ["Cc1ccc(C(=O)N2CCN(c3ccc(C(=O)c4c(-c5ccc(O)cc5)sc5cc(O)ccc45)cc3)CC2)cc1", "nM", 4.94],
  ["Cc1cc(C)nc(N2CCN(c3ccc(C(=O)c4c(-c5ccc(O)cc5)sc5cc(O)ccc45)cc3)CC2)n1", "nM", 66.5],
  ["O=C(c1ccc(N2CCN(c3ccc(Cl)cc3)CC2)cc1)c1c(-c2ccc(O)cc2)sc2cc(O)ccc12", "nM", 9.07]
]}

A. O=C(c1ccc(N2CCN(C(=O)c3ccccc3)CC2)cc1)c1c(-c2ccc(O)cc2)sc2cc(O)ccc12
B. O=C(c1ccc(N2CCN(Cc3ccc([N+](=O)[O-])cc3)CC2)cc1)c1c(-c2ccc(O)cc2)sc2cc(O)ccc12
// which entry has the larger IC50 value, A or B ? Mark your answer with the label of the selected entry.
A
